Origin of the recorded values: ChEMBL document CHEMBL1817659

Test: Cytotoxicity against mouse NIH/3T3 cells after 48 hrs by NRU assay
Format: cell-based, NIH3T3
Setup conditions: read-out: TC50
Parameter: log10 of CC50 at 48 h (log10 of the value in µM)

{"columns": ["Chemical structure", "log10 of CC50 at 48 h"],
 "data": [
  ["CCCCCCCCCCc1c(C)c(CCCCCCCCCC)c2[n+](c1C)CCCCC2", 0.27],
  ["CCCCCCCC/C=C\\c1c(C)c(/C=C\\CCCCCCCC)c2[n+](c1C)CCC2", 1.36],
  ["CCCCCCCC/C=C/c1c(C)c(/C=C/CCCCCCCC)c2[n+](c1C)CCC2", 0.40],
  ["CCCCCCCCCCc1c(C)c(CCCCCCCCCC)c2[n+](c1C)CCCC2", 0.30],
  ["CCCCCCCCCCc1c(C)c(CCCCCCCCCC)c2[n+](c1C)CCC2", 0.45],
  ["CCCCCCCC/C=C\\c1c(C)c(/C=C\\CCCCCCCC)c2[n+](c1C)CCCCC2", 0.88],
  ["CCCCCCCC/C=C/c1c(C)c(/C=C/CCCCCCCC)c2[n+](c1C)CCCC2", 0.83],
  ["CCCCCCCC/C=C\\c1c(C)c(/C=C\\CCCCCCCC)c2[n+](c1C)CCCC2", 1.28],
  ["CCCCCCCC/C=C/c1c(C)c(/C=C/CCCCCCCC)c2[n+](c1C)CCCCC2", -0.08]
]}
